Biological target: DYRK1A (Homo sapiens, UniProt Q13627)
Construct: purchased Eurofins Pharma Discovery (KINOMEscan)
Experiment: KINOMEscan
Assay type: binding
Conditions: DYRK1A; N.B.: no binding at concentrations up to 30 µM
readout: pKd
As a rule, pKd stands for the negative log10 of the concentration, concentration in M.

Asked: Note pKd for the compound shown: O=C1Nc2c(cc([N+](=O)[O-])c3c2CCCC3)C1=NO
Given back: 6.36

====

For each record, write down the corresponding Kd.

Asked: State Kd on HASPIN (Homo sapiens). Entry: O=C1Nc2c(ccc3c2CCCC3)C1=NO
Sequence (Q8TF76 whole entry): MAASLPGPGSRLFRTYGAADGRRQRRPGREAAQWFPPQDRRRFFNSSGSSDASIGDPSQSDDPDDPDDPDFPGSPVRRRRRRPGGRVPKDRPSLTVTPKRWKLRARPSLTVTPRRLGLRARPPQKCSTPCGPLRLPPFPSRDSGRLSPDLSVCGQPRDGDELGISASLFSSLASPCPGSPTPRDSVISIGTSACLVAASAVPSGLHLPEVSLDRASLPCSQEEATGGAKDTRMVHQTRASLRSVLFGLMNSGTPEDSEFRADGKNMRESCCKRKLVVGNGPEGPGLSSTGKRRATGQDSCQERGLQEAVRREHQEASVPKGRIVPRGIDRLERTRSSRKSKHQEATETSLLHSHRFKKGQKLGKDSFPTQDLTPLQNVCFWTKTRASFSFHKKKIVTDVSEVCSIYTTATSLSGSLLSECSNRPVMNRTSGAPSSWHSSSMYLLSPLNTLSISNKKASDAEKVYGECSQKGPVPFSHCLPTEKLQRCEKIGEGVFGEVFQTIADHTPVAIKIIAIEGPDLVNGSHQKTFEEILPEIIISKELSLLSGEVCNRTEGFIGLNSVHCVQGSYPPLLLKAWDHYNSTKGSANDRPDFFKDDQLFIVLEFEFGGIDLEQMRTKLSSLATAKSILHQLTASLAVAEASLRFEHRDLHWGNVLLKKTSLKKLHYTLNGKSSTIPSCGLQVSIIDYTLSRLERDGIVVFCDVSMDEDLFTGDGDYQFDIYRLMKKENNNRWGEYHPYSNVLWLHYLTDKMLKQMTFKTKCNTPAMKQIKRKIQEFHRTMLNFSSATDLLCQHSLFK
Given back: 610 nM

Asked: State Kd on HASPIN (Homo sapiens). Entry: O=C1Nc2c(cc([N+](=O)[O-])c3c2CCCC3)C1=NO
Given back: 165 nM

Every entry's value here was drawn from paper PMC12300041.
